Let's look at some compounds and their measured inhibition at 30 µM.
Target: human 11βHSD1 enzyme (Homo sapiens)
Construct: baculovirus expressed N terminal 6-His tagged full length human 11βHSD1 enzyme; 6-His (N); made in house
Sequence (P28845 whole entry): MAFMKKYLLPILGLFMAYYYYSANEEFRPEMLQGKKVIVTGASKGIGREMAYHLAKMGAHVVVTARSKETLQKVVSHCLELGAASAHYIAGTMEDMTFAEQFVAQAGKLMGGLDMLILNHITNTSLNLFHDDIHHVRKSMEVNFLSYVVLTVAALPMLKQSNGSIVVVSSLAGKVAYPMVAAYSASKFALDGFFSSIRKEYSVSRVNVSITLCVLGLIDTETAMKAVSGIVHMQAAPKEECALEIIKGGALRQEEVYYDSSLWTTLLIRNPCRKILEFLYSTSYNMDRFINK
Assay: 11βHSD1 cortisone to cortisol conversion, competitive HTRF assay
Assay type: biochemical
Conditions: human 11-βHSD; test concentration of 30 μM of compound
Answer format: numeric, % implied, no suffix.

Take a look at these entries with their results.
- COMPOUND: "CCCSc1nc(N2CCN(C(C)=O)CC2)ncc1C(=O)N[C@H]1C2CC3CC1C[C@@](O)(C3)C2 [Example 26]"
  VALUE_OBSERVED: 89
- COMPOUND: "C[C@@H]1CN(CCNc2ncc(C(=O)N[C@H]3C4CC5CC3C[C@@](O)(C5)C4)c(C3CC3)n2)C[C@H](C)O1 [Example 73]"
  VALUE_OBSERVED: 95.2
- COMPOUND: "O=C(N[C@H]1C2CC3CC1C[C@@](O)(C3)C2)c1cnc(N2CC[S+]([O-])CC2)nc1C1CC1 [Example 36]"
  VALUE_OBSERVED: 99.5
- COMPOUND: "O=C(N[C@H]1C2CC3CC1C[C@@](O)(C3)C2)c1cnc(N2CCC2)nc1N1CCC1 [Example 201]"
  VALUE_OBSERVED: 95
- COMPOUND: "O=C(N[C@H]1C2CC3CC1C[C@@](O)(C3)C2)c1cnc(NC2COC2)nc1[C@H]1CCCO1 [Example 173]"
  VALUE_OBSERVED: 101

Fill in the recorded inhibition at 30 µM for this compound, with human 11βHSD1 enzyme (Homo sapiens) as test system: CC(C)Oc1ncc(C(=O)N[C@H]2C3CC4CC2C[C@@](O)(C4)C3)c(C2CC2)n1 [Example 76]
96.1

Same question for O=C(N[C@H]1C2CC3CC1C[C@@](O)(C3)C2)c1cnc(OC2CCC2)nc1C1CCCC1 [Example 111] please.
108

Same question for CC(=O)N1CCN(c2ncc(C(=O)N[C@H]3C4CC5CC3C[C@@](O)(C5)C4)c(C3CCCC3)n2)CC1 [Example 126] please.
96.6

Same question for C[C@@H]1CN(CCNc2ncc(C(=O)N[C@H]3C4CC5CC3C[C@@](O)(C5)C4)c(C3CCCC3)n2)C[C@H](C)O1 [Example 148] please.
102
